All figures here come from patent US12215129B2.

Procedure details: in vivo
Details: female, BALB/c, mouse, iv, 5 mg/kg
Starred links: 1 amine or outer side, 2 acyl side, 3 side chain; linkers in the order of their positions; H or OH if unused. Positions of bridges follow the written chain, without caps; N, C: chain ends. Non-standard residues stand in square brackets, D forms with d. Residues, ends and D or L forms follow the SMILES beside them. *: point of attachment. dAsp(3R-OH) = N[C@@H](C(=O)O)[C@@H](O)C(=O)O; X1 = NC[C@H](O)[C@@H](N[*:1])C(=O)[*:2]; X2 = CCC(C)(O)[C@H](N[*:1])C(=O)[*:2]; d(aIle) = CC[C@H](C)[C@@H](N)C(=O)O; Myristoyl = CCCCCCCCCCCCCC(=O)*; dOrn = NCCC[C@@H](N)C(=O)O; hSer = N[C@@H](CCO)C(=O)O
Endpoint name: AUC(0-t) (µg·h/mL)
Please give a number only; it is taken to be in µg·h/mL.

Which AUC(0-t) reading was recorded for the molecule CCCCCCCCCCCCCC(=O)N[C@H](CCCN)C(=O)N[C@@H](CO)C(=O)N[C@H](C(=O)N[C@@H](C(=O)N[C@@H](C(=O)N[C@@H]1C(=O)NCC(=O)N[C@@H](C(C)(O)CC)C(=O)N[C@H]([C@@H](C)CC)C(=O)N[C@@H](CCO)C(=O)N[C@@H](C)C(=O)N[C@H]([C@@H](C)CC)C(=O)N[C@@H](CCC(=O)O)C(=O)O[C@@H]1C)[C@@H](O)CN)[C@@H](O)C(=O)O)C(C)C (stereo partly drawn) [Compound 1, Turnercyclamycin A] (Myristoyl-[dOrn]SV[dAsp(3R-OH)][X1]TG[X2][d(aIle)][hSer]A[d(aIle)]E; ester 6-C) ?
285
